Where do these numbers come from? They come from ChEMBL document CHEMBL1143251.

# Experimental Details: Displacement of [3H]ketanserin from 5HT2 receptor in rat brain homogenate
# Assay type: tissue-based
Observed Property: pKi
Answers are plain numbers, as −log10 of the molar value.

Reported pKi for `S=c1sc2ccccc2n1CCCCN1CCN(C2CCCCC2)CC1` : what is it? 5.88

---

# Target Of Assay: Sodium-dependent serotonin transporter (Rattus norvegicus)
# Sequence (P31652 whole entry): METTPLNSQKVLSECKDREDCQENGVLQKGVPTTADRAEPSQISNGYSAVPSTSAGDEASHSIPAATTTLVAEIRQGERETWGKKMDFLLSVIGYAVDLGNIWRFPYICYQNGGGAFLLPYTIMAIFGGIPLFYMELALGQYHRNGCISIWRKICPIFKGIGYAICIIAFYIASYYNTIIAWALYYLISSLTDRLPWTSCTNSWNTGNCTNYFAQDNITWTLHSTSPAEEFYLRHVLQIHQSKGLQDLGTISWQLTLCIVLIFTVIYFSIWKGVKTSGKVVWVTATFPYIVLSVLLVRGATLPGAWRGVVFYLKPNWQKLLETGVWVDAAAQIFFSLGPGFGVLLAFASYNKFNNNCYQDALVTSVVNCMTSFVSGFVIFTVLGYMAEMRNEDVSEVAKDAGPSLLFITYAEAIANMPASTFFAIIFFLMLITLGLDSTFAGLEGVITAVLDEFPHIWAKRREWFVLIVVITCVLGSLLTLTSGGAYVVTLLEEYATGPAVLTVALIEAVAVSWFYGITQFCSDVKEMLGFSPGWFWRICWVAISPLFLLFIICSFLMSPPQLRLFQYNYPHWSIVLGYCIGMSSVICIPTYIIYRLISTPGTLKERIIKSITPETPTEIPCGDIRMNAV
Observed Property: Ki (µM)
Numbers only, in µM.

Reported Ki for `S=c1sc2ccccc2n1CCCCN1CCN(C2CCCCC2)CC1` : what is it? 1.4

---

# Experimental Details: Displacement of [3H]DTG from opioid sigma2 receptor in rat brain homogenate
# Assay type: tissue-based
Observed Property: Ki (nM)
One number for each entry, in nM.

Molecule	Measure Unit	Ki
c1ccc2oc(SCCCCN3CCN(C4CCCCC4)CC3)nc2c1	nM	3.77
O=c1sc2ccccc2n1CCCCN1CCN(C2CCCCC2)CC1	nM	0.39
COc1cccc2c1CCCC2CCCN1CCN(C2CCCCC2)CC1 (centres undefined)	nM	1.11

Take each entry in turn and give its Ki.
1. O=c1oc2ccccc2n1CCN1CCN(C2CCCCC2)CC1
2. O=c1sc2ccccc2n1CCCCCCN1CCN(C2CCCCC2)CC1
3. S=c1oc2ccccc2n1CCCCN1CCN(C2CCCCC2)CC1
4. O=c1sc2ccccc2n1CCCCCN1CCN(C2CCCCC2)CC1
5. O=c1oc2ccccc2n1CCCCN1CCN(C2CCCCC2)CC1
6. O=c1oc2ccccc2n1CCCCCN1CCN(C2CCCCC2)CC1

[5.43, 1.49, 0.77, 2.44, 1.83, 5.89]

---

# Organism: Rattus norvegicus
# Experimental Details: Ratio of Ki for rat sigma1 opioid receptor to Ki for rat sigma2 opioid receptor
Class Met: Ratio Ki at least 2. Class Not met: Ratio Ki below 2.

Example entries begin here.
Compound	Class Assignment
COc1cccc2c1CCCC2CCCN1CCN(C2CCCCC2)CC1 (stereo not drawn)	Not met
O=c1oc2ccccc2n1CCCCCN1CCN(C2CCCCC2)CC1	Not met
S=c1sc2ccccc2n1CCCCN1CCN(C2CCCCC2)CC1	Met
O=c1oc2ccccc2n1CCCCN1CCN(C2CCCCC2)CC1	Met
O=c1oc2ccccc2n1CCCCCCN1CCN(C2CCCCC2)CC1	Not met

Is Ratio Ki for `O=c1sc2ccccc2n1CCCCCCN1CCN(C2CCCCC2)CC1` at or above 2? Met

How about this compound: `CCCc1ccc2c(c1)sc(=O)n2CCN1CCCCCC1` Not met

How about this compound: `O=c1sc2ccccc2n1CCCN1CCN(C2CCCCC2)CC1` Not met

---

What pKi was measured for each of the following?
# Target Of Assay: Sigma non-opioid intracellular receptor 1 (Rattus norvegicus, UniProt Q9R0C9)
# Sequence (Q9R0C9 whole entry): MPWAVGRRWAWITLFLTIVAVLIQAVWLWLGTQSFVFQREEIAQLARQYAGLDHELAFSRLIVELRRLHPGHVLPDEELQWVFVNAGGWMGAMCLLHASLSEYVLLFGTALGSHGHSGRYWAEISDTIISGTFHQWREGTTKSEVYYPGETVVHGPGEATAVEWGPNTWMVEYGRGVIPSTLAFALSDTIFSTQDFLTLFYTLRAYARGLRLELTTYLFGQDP
# Experimental Details: Displacement of [3H](+)-pentazocine from opioid sigma1 receptor in rat brain homogenate
# Assay type: tissue-based
Answers are plain numbers, as −log10 of the molar value.

Compound	pKi
COc1cccc2c1CCCC2CCCN1CCN(C2CCCCC2)CC1 (configuration not stated)	8.83

Turning now to a further record.
Reported pKi for `CCCc1ccc2c(c1)sc(=O)n2CCN1CCCCCC1` : what is it? 9.92

---

# Target Of Assay: Glutamate NMDA receptor
# Experimental Details: Displacement of [3H]TCP from NMDA receptor in rat brain homogenate
pKi: −log10 of the molar value.
Observed Property: pKi

# value lookup — system Glutamate NMDA receptor, readout pKi, item `S=c1sc2ccccc2n1CCCCN1CCN(C2CCCCC2)CC1` < 5.00
